# Test system: F508delCFTR (Homo sapiens, UniProt P13569, DEL508-508)
# Construct: expressed in transfected cells; host or cells: CFBE41o- human lung derived epithelial cell line, doxycycline-induced expression
# Sequence (P13569 with tags, fused parts or gaps DEL508-508): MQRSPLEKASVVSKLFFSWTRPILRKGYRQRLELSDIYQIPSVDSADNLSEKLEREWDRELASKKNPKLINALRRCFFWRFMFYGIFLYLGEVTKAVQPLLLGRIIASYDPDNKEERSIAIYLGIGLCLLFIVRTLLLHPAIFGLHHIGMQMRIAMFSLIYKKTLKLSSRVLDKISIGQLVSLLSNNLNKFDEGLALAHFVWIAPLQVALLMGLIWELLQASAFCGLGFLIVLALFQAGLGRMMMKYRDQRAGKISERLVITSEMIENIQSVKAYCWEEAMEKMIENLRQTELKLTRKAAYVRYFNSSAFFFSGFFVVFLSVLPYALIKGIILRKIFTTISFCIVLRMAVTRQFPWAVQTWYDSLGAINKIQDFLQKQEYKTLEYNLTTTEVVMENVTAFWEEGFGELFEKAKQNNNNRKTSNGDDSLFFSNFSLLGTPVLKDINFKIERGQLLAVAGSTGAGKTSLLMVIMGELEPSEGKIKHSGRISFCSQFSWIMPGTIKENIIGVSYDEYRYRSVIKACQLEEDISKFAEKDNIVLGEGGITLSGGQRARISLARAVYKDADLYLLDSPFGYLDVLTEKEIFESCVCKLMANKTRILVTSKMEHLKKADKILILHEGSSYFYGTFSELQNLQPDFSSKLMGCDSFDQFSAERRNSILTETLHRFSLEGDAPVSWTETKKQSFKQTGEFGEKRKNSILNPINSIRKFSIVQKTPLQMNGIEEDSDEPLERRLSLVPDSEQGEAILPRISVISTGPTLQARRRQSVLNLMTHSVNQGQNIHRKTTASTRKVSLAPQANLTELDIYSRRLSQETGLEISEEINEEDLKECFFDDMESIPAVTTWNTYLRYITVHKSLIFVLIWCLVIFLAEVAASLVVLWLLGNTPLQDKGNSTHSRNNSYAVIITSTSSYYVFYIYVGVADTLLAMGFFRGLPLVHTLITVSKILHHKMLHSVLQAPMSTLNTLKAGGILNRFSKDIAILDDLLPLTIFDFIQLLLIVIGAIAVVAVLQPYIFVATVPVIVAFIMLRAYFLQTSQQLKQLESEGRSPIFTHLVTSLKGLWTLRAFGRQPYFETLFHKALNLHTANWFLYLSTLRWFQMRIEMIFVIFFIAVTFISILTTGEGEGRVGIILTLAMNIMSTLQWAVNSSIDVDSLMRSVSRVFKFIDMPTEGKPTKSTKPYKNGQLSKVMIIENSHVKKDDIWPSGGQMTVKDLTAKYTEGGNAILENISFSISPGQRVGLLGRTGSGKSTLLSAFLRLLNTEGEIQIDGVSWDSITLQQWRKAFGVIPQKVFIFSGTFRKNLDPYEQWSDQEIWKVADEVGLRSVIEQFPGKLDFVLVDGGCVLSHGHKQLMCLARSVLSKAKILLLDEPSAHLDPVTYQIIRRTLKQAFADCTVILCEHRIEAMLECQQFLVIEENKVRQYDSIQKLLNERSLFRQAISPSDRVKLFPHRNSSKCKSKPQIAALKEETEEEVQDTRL
# Protocol text: Cell Surface Expression-Horse Radish Peroxidase (CSE-HRP) assay in CFBE41o-F508delCFTR-HRP cells
# Type: cell-based
# Condition details: with co-corrector 2 μM; CFBE41o-F508delCFTR-HRP cells, 18-24 hours at 33° C.; read-out: EC50 (with co-corrector)
pEC50: −log10 of the molar value.
Experimental readout: pEC50

Field: example entries. Status: answers known.
COc1ccc(C)cc1[C@@]1(C(=O)NS(=O)(=O)c2cccc3nc(C)ccc23)C[C@H](OC)CO1 [Example 28]; 5.46
COc1ccc(C)cc1[C@@]1(C(=O)NS(=O)(=O)c2cccc3nc(C)ccc23)CC[C@@H](c2ccccc2)O1 [Example 8]; 6.36
COc1ccc(C)cc1[C@]1(C(=O)NS(=O)(=O)c2cccc3nc(C)ccc23)CC2(CC2)CO1 [Example 16]; 5.59

[1] COc1ccc(C)cc1[C@@]1(C(=O)NS(=O)(=O)c2cccc3nc(C)ccc23)C[C@H](c2ccccc2)CO1 [Example 33]
[2] CCc1ccc(OC[C@H](C)OC)c([C@]2(C(=O)NS(=O)(=O)c3cccc4nc(C)ccc34)CCCO2)c1 [Example 13]
[3] CCOc1ccc(CC)cc1[C@]1(C(=O)NS(=O)(=O)c2cccc3nc(C)ccc23)CCCO1 [Example 10]
Order by pEC50, ascending. State the ranking by listing the labels in the requested order.
2, 3, 1
(2: 5.30, 3: 5.57, 1: 5.79)

* * *

# Test system: F508del/F508del CFTR (Homo sapiens, UniProt P13569, DEL508-508)
# Construct: cells isolated from CF patients with the homozygous mutation; endogenous in cells; host or cells: primary human bronchial epithelial (hBE) cells from CF patients homozygous for F508del
# Sequence (P13569 with tags, fused parts or gaps DEL508-508): as above
# Protocol text: Trans-Epithelial Current Clamp (TECC) assay using primary human bronchial epithelial cells
# Type: cell-based
# Condition details: maximum percent activity relative to positive control (co-corrector 0.15 μM + potentiator 0.45 μM = 100%)
Experimental readout: Emax (% Dual)

Field: example entries. Status: answers known.
COc1ccc(C)cc1[C@]1(C(=O)NS(=O)(=O)c2cccc3nc(C)ccc23)C[C@@H](c2ccccc2)CO1 [Example 36]; 255
COc1cccc([C@@H]2CO[C@@](C(=O)NS(=O)(=O)c3cccc4nc(C)ccc34)(c3cc(C)ccc3OC)C2)c1 [Example 42]; 237
COc1ccc(C)cc1[C@]1(C(=O)NS(=O)(=O)c2cccc3nc(C)ccc23)C[C@@](C)(OC)CO1 [Example 31]; 117

[I] CCOc1ccc(CC)cc1[C@@]1(C(=O)NS(=O)(=O)c2cccc3nc(C)ccc23)CCCO1 [Example 9]
[II] CCc1ccc(OCC(C)OC)c([C@@]2(C(=O)NS(=O)(=O)c3cccc4nc(C)ccc34)CCCO2)c1 (stereo in doubt) [Example 14]
Hello, I am sorting some records. Could you say if I or II has the smaller Emax (% Dual) value? The response must carry the label of the picked entry.
II
(II: 161 % Dual, I: 256 % Dual)

[a] CCc1ccc(Oc2cccnc2OC)c([C@@]2(C(=O)NS(=O)(=O)c3cccc4nc(C)ccc34)CCCO2)c1 [Example 25]
[b] CCOc1ccc(CC)cc1[C@]1(C(=O)NS(=O)(=O)c2cccc3nc(C)ccc23)CCCO1 [Example 10]
Emax (% Dual) comparison. Which is larger, a or b ? The response must carry the label of the picked entry.
a

* * *

# Test system: F508delCFTR (Homo sapiens, UniProt P13569, DEL508-508)
# Construct: expressed in transfected cells; host or cells: CFBE41o- human lung derived epithelial cell line, doxycycline-induced expression
# Protocol text: Cell Surface Expression-Horse Radish Peroxidase (CSE-HRP) assay in CFBE41o-F508delCFTR-HRP cells
# Type: cell-based
# Condition details: with co-corrector 2 μM; CFBE41o-F508delCFTR-HRP cells, 18-24 hours at 33° C.; read-out: EC50 (with co-corrector)
pEC50: −log10 of the molar value.
Experimental readout: pEC50

COc1ccc(C)cc1[C@]1(C(=O)NS(=O)(=O)c2cccc3nc(C)ccc23)CC[C@H](c2ccccc2)O1; 5.92
COc1ccc(C)cc1[C@@]1(C(=O)NS(=O)(=O)c2cccc3nc(N)ccc23)C[C@H](c2ccccc2)CO1; 6.57

[P] COc1ccccc1[C@@H]1CO[C@@](C(=O)NS(=O)(=O)c2cccc3nc(C)ccc23)(c2cc(C)ccc2OC)C1
[Q] CCOc1ccc(C)cc1[C@@]1(C(=O)NS(=O)(=O)c2cccc3nc(C4CC4)ccc23)CCCO1
pEC50 comparison. Which is larger, P or Q ? The response must carry the label of the picked entry.
P
(P: 6.70, Q: 6.00)

* * *

# Test system: F508delCFTR (Homo sapiens, UniProt P13569, DEL508-508)
# Construct: expressed in transfected cells; host or cells: CFBE41o- human lung derived epithelial cell line, doxycycline-induced expression
# Protocol text: Cell Surface Expression-Horse Radish Peroxidase (CSE-HRP) assay in CFBE41o-F508delCFTR-HRP cells
# Type: cell-based
# Condition details: with co-corrector 2 μM; CFBE41o-F508delCFTR-HRP cells, 18-24 hours at 33° C.; read-out: EC50 (with co-corrector)
pEC50: −log10 of the molar value.
Experimental readout: pEC50

Field: example entries. Status: answers known.
CCc1ccc(Oc2cccnc2OC(F)F)c([C@]2(C(=O)NS(=O)(=O)c3cccc4nc(C)ccc34)CCCO2)c1 [Example 26]; 5.49
COc1ccc(C)cc1[C@@]1(C(=O)NS(=O)(=O)c2cccc3nc(C)ccc23)CC(C)(C)CO1 [Example 5]; 5.92
COc1cccc([C@@H]2CO[C@@](C(=O)NS(=O)(=O)c3cccc4nc(C)ccc34)(c3cc(C)ccc3OC)C2)c1 [Example 42]; 6.24

[A] COc1ccc(C)cc1C1(C(=O)NS(=O)(=O)c2cccc3nc(C)ccc23)CCC(c2ccccc2)O1 (stereo in doubt) [Example 7]
[B] CCc1ccc(OCC(C)OC)c([C@@]2(C(=O)NS(=O)(=O)c3cccc4nc(C)ccc34)CCCO2)c1 (stereo in doubt) [Example 14]
pEC50 comparison. Which is larger, A or B ? The response must carry the label of the picked entry.
A
(A: 6.48, B: 5.60)

* * *

# Test system: F508delCFTR (Homo sapiens, UniProt P13569, DEL508-508)
# Construct: expressed in transfected cells; host or cells: CFBE41o- human lung derived epithelial cell line, doxycycline-induced expression
# Protocol text: Cell Surface Expression-Horse Radish Peroxidase (CSE-HRP) assay in CFBE41o-F508delCFTR-HRP cells
# Type: cell-based
# Condition details: with co-corrector 2 μM; CFBE41o-F508delCFTR-HRP cells, 18-24 hours at 33° C.; read-out: EC50 (with co-corrector)
pEC50: −log10 of the molar value.
Experimental readout: pEC50

CCc1ccc(Oc2cccnc2OC(F)F)c([C@@]2(C(=O)NS(=O)(=O)c3cccc4nc(C)ccc34)CCCO2)c1 [Example 27]; 6.19

[A] CCOc1ccc(C)cc1[C@@]1(C(=O)NS(=O)(=O)c2cccc3nc(C)ccc23)CCCO1 (single isomer, unassigned) [Example 2]
[B] CCOc1ccc(C)cc1[C@]1(C(=O)NS(=O)(=O)c2cccc3nc(C)ccc23)CCCO1 [Example 1]
[C] COc1ccc([C@@H]2CO[C@@](C(=O)NS(=O)(=O)c3cccc4nc(C)ccc34)(c3cc(C)ccc3OC)C2)cc1 [Example 44]
Order by pEC50, ascending. State the ranking by listing the labels in the requested order.
B, A, C
(B: 5.42, A: 6.11, C: 6.52)

* * *

# Test system: F508del/F508del CFTR (Homo sapiens, UniProt P13569, DEL508-508)
# Construct: cells isolated from CF patients with the homozygous mutation; endogenous in cells
# Protocol text: Trans-Epithelial Current Clamp (TECC) assay using primary human bronchial epithelial cells
# Condition details: primary hBE cells F508del/F508del; test corrector with co-corrector and potentiator, 18-24 hours; equivalent CFTR current
pEC50: −log10 of the molar value.
Experimental readout: pEC50

Field: example entries. Status: answers known.
COc1ccc(C)cc1[C@@]1(C(=O)NS(=O)(=O)c2cccc3nc(C)ccc23)C[C@H](C)CO1; 7.45
COc1ccc(C)cc1[C@]1(C(=O)NS(=O)(=O)c2cccc3nc(C)ccc23)C[C@@H](c2ccccc2)CO1; 7.51
CCc1ccc(Oc2cccnc2OC(F)F)c(C2(C(=O)NS(=O)(=O)c3cccc4nc(C)ccc34)CCCO2)c1 (stereo not drawn); 7.93
COc1ccc(C)cc1[C@@]1(C(=O)NS(=O)(=O)c2cccc3nc(C)ccc23)C[C@@H](c2ccccc2)CO1; 7.68
COc1ccccc1[C@H]1CO[C@@](C(=O)NS(=O)(=O)c2cccc3nc(C)ccc23)(c2cc(C)ccc2OC)C1; 7.85

[P] COc1ccc(C)cc1[C@@]1(C(=O)NS(=O)(=O)c2cccc3nc(N)ccc23)C[C@H](c2ccccc2)CO1
[Q] COc1ccc(C)cc1[C@@]1(C(=O)NS(=O)(=O)c2cccc3nc(C)ccc23)C[C@](C)(OC)CO1
[R] COc1ccc(C)cc1[C@@]1(C(=O)NS(=O)(=O)c2cccc3nc(C)ccc23)CC[C@H](c2ccccc2)O1
[S] CCOc1ccc(CC)cc1[C@@]1(C(=O)NS(=O)(=O)c2cccc3nc(C)ccc23)CCCO1
Hello, I need these entries ordered by pEC50, highest reading first. Thanks! State the ranking by listing the labels in the requested order.
P, S, R, Q

[P] COc1ccc(C)cc1[C@]1(C(=O)NS(=O)(=O)c2cccc3nc(C)ccc23)CC[C@H](c2ccccc2)O1
[Q] CCc1ccc(OCC(C)OC)c([C@@]2(C(=O)NS(=O)(=O)c3cccc4nc(C)ccc34)CCCO2)c1 (stereo in doubt)
Hello, I am sorting some records. Could you say if P or Q has the smaller pEC50 value? The response must carry the label of the picked entry.
Q
